Data origin: ChEMBL document CHEMBL1201862

Test system: DMS-114
Assay remarks: NCI tumour cell line growth inhibition, 48 h
The source made the active and inactive calls. No stated cut-off is given here; in the data, active = GI50 up to about 1.1 µM and inactive = higher.
As shown below, each of these compounds has a reported GI50 value.

>>> endpoint_result("CN/C=C(\\C(=O)c1ccc(OC)c(OC)c1)c1ccc(OC)cc1")
"18.6 µM (inactive)"
>>> endpoint_result("Cc1cccc(C)c1NC(=O)C1=NC(=S)NC(c2ccccc2)C1c1nc2ccccc2s1 (configuration not stated)")
"> 100 µM (inactive)"
>>> endpoint_result("COc1cc(C[S+]2CCCC2)c(SC)cc1C[S+]1CCCC1")
"> 100 µM (inactive)"
>>> endpoint_result("ON1CCc2c([nH]c3ccccc23)C1c1ccc(Cl)cc1 (configuration not stated)")
"19.4 µM (inactive)"
>>> endpoint_result("CC[C@H]1CN2CCc3cc(OC)c(OC)cc3[C@@H]2C[C@@H]1C[C@H]1NCCc2c1[nH]c1ccc(O)cc21")
"< 0.01 µM (active)"

// field: GI50; key: N#CNCC(COCc1ccccc1)c1ccccc1 (configuration not stated) ; value = 53.2 µM (inactive)

// field: GI50; key: "O=C(NC/C=C/CO)c1ccccc1" ; value = > 100 µM (inactive)

###

Test system: MDA-MB-435
Assay remarks: NCI tumour cell line growth inhibition, 48 h
The source made the active and inactive calls. Rule as the data show it: active = GI50 up to about 1.1 µM and inactive = higher.
Response enum: class 1 = active, class 0 = inactive

Past entries and their recorded results:
>>> cat("Cc1cc2c(O)c(c1)CN(CC(=O)O)Cc1cc(C)cc(c1O)CN(CC(=O)O)Cc1cc(C)cc(c1O)CN(CC(=O)O)C2")
"class 0"
>>> cat("Sc1nnc(Cc2ccc(Cl)cc2)[nH]1")
"class 0"

Per the records of this test, what outcome belongs to "O=c1c(-c2nc3ccccc3c3ccccc3c2=O)nc2ccccc2c2ccccc12" ?
class 0

Per the records of this test, what outcome belongs to "CCC/C(=N\NC(=S)N1CC2CCC(CC2)C1)c1ccccn1" ?
class 1

Per the records of this test, what outcome belongs to COC1CCON1C(=O)c1ccccc1 (configuration not stated) ?
class 0

###

Test system: OVCAR-4
Assay remarks: NCI tumour cell line growth inhibition, 48 h
Activity calls are given as the source filed them. No stated cut-off is given here; in the data, active = GI50 up to about 1.1 µM and inactive = higher.
Response enum: active, inactive

Past entries and their recorded results:
>>> cat("Cc1occc1C(=S)Nc1ccc(Cl)c(C(=O)OC(C(C)C)C(C)C)c1")
"inactive"
>>> cat("O=C(c1ccccc1)c1c2ccccn2c2cccc[n+]12")
"inactive"
>>> cat("Cn1c2cccc3nnc4cccc(c4c32)n1C")
"inactive"
>>> cat("CCCCS(=O)(=O)CCC(N)P(=O)(O)O (stereo not given)")
"inactive"
>>> cat("O=C1CCC2(c3ccccc3)Nc3ncccc3N12 (stereo not given)")
"inactive"

Per the records of this test, what outcome belongs to "CCOC(=O)c1cnc2oc3ccc(O)cc3c2c1C" ?
inactive

Per the records of this test, what outcome belongs to "CC1=C(N2CC2)C(=O)C(CO)=C(N2CC2)C1=O" ?
active

Per the records of this test, what outcome belongs to C=C(C)[C@@]12C[C@H](OC(=O)[C@H](O)[C@@H](NC(=O)c3ccccc3)c3ccccc3)C(C)=C1[C@@H](OC(C)=O)C(=O)[C@@]1(C)C([C@@H]2OC(=O)c2cc(F)cc(F)c2)C2(OC(C)=O)CO[C@@H]2C[C@@H]1O (stereo not given in full) ?
inactive

Per the records of this test, what outcome belongs to CCOC(=O)C(Cc1cn(C(C)=O)c2ccccc12)P(=O)(OCC)OCC (stereo not given) ?
inactive

Per the records of this test, what outcome belongs to O=C(O)CCC(NC(=O)c1ccccc1)C(=O)O (stereo not given) ?
inactive

Per the records of this test, what outcome belongs to "O=C(O)COc1c(Cl)cc(Cl)c(C(c2c(Cl)cc(Cl)c(OCC(=O)O)c2Cl)C(Cl)(Cl)Cl)c1Cl" ?
inactive
